molecular target: c-Src SH2; test: SH2 binding enrichment of the phosphorylated peptide, bacterial display (enrichment ratio); higher = better substrate or ligand; peptides without Tyr show the background;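 also: peptide library displayed on the E. coli surface as eCPX fusions, selected cells deep-sequenced, score is each peptide's frequency after selection divided by its frequency in the input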
Lab note: compare SH2 binding enrichment against 0.5. Equal or greater, write Criterion met. Smaller, write Criterion not met.

* SDVWSYGVTMW [ZAP70_Y525] | Criterion met
* TLQSMYGCDVG [HLA-B_Y123] | Criterion met
* NWGKKYPTCNS [PTPRZ1_Y53] | Criterion met
* GEEIKYTLWLS [OTC_Y55_M56T] | Criterion not met
* INMKEYCKKDF [NTN1_Y490_K489E_YF] | Criterion met
* TEYSQYMRRKN [MAX_Y73_I71S] | Criterion not met
* ADRLEYSRTGL [MMUT_Y287_G284R] | Criterion met
* IGKAGYTDKVV [ENO1_Y236] | Criterion not met
* TSKLNYLDPRI [TOP1_Y723] | Criterion met
* FAKSVYWENTL [NUP107_Y296_YF] | Criterion met
* SMAKFYASGIA [ACADSB_Y373_E376G_YF] | Criterion not met
* ASKEPYYVRCI [MYO1D_Y585] | Criterion not met
* IFRAAYFGVFD [SLC25A4_Y191_YF] | Criterion met
* NFCPGYNNFFN [USH2A_Y467_R464C_YF] | Criterion met
* FQRLRYIKQLG [SAMHD1_Y146] | Criterion not met
* SPRDTYSDRSG [CTPS1_Y567] | Criterion not met
* QRNEEYCLLDS [ITK_Y198_R193Q] | Criterion met
